# Tested on: S. aureus ATCC 25923, MSSA
# assay_context: ATCC 25923
Positions of bridges follow the written chain, without caps; N, C: chain ends. Non-standard residues stand in square brackets, D forms with d. Residues, ends and D or L forms follow the SMILES beside them. *: point of attachment. Decanoyl(3R-OH) = CCCCCCC[C@@H](O)CC(=O)*; Phe(4-NH2) = Nc1ccc(C[C@H](N)C(=O)O)cc1; dDab = NCC[C@@H](N)C(=O)O; Dab = NCC[C@H](N)C(=O)O; Dap = NC[C@H](N)C(=O)O
reported_metric: MIC, S. Aureus ATCC 25923, MSSA (µg/mL)

CCCCCCC[C@@H](O)CC(=O)N[C@H](CCN)C(=O)N[C@H]1CCNC(=O)[C@H](CC(C)C)NC(=O)[C@H](CCN)NC(=O)[C@H](CCN)NC(=O)[C@H](CC(C)C)NC(=O)[C@@H](Cc2ccccc2)NC(=O)[C@H](CCN)NC1=O [Octapeptin C4 (631), reference compound] ({Decanoyl(3R-OH)}-[dDab][Dab][Dab][dF]L[Dab][Dab]L; lactam 2-C); 16
CCCCCCC[C@@H](O)CC(=O)N[C@H](CCN)C(=O)N[C@H]1CCNC(=O)[C@H](CC(C)C)NC(=O)[C@H](CCN)NC(=O)[C@H](C)NC(=O)[C@H](CC(C)C)NC(=O)[C@@H](Cc2ccccc2)NC(=O)[C@H](CCN)NC1=O [compound 4945] ({Decanoyl(3R-OH)}-[dDab][Dab][Dab][dF]LA[Dab]L; lactam 2-C); 32
CCCCCCC[C@@H](O)CC(=O)N[C@H](CCN)C(=O)N[C@H]1CCNC(=O)[C@H](CC(C)C)NC(=O)[C@H](CCN)NC(=O)[C@H](CCN)NC(=O)[C@H](CC(C)C)NC(=O)[C@@H](Cc2ccccc2)NC(=O)[C@H](CCNC(=O)[C@@H](N)CCCNC(=N)N)NC1=O [compound 6655] ({Decanoyl(3R-OH)}-[dDab][Dab][Dab](Arg)[dF]L[Dab][Dab]L; lactam 2-C); 16
CCCCCCC[C@@H](O)CC(=O)N[C@H](CCN)C(=O)N[C@H]1CCNC(=O)[C@H](CC(C)C)NC(=O)[C@H](CCN)NC(=O)[C@H](CN)NC(=O)[C@H](CC(C)C)NC(=O)[C@@H](Cc2ccccc2)NC(=O)[C@H](CCN)NC1=O [compound 990] ({Decanoyl(3R-OH)}-[dDab][Dab][Dab][dF]L[Dap][Dab]L; lactam 2-C); 32
CCCCCCC[C@@H](O)CC(=O)N[C@H](CCN)C(=O)N[C@H]1CCNC(=O)[C@H](CC(C)C)NC(=O)[C@H](CCN)NC(=O)[C@H](CCN)NC(=O)[C@H](CC(C)C)NC(=O)[C@@H](Cc2ccccc2)NC(=O)[C@H](Cc2ccc(N)cc2)NC1=O [compound 8635] ({Decanoyl(3R-OH)}-[dDab][Dab][Phe(4-NH2)][dF]L[Dab][Dab]L; lactam 2-C); 32
CCCCCCC[C@@H](O)CC(=O)N[C@H](CCN)C(=O)N[C@H]1CCNC(=O)[C@H](CC(C)C)NC(=O)[C@H](CCN)NC(=O)[C@H](Cc2ccc(N)cc2)NC(=O)[C@H](CC(C)C)NC(=O)[C@@H](Cc2ccccc2)NC(=O)[C@H](CCN)NC1=O [compound 8642] ({Decanoyl(3R-OH)}-[dDab][Dab][Dab][dF]L[Phe(4-NH2)][Dab]L; lactam 2-C); 8
CCCCCCC[C@@H](O)CC(=O)N[C@H](CCN)C(=O)N[C@H]1CCNC(=O)[C@H](CC(C)C)NC(=O)[C@H](CCN)NC(=O)[C@H](CCN)NC(=O)[C@H](CC(C)C)NC(=O)[C@@H](Cc2ccccc2)NC(=O)[C@H](CN)NC1=O [compound 993] ({Decanoyl(3R-OH)}-[dDab][Dab][Dap][dF]L[Dab][Dab]L; lactam 2-C); 8
CCCCCCC[C@@H](O)CC(=O)N[C@H](CCN)C(=O)N[C@H]1CCNC(=O)[C@H](CC(C)C)NC(=O)[C@H](CCN)NC(=O)[C@H](CCN)NC(=O)[C@H](CC(C)C)NC(=O)[C@@H](Cc2ccccc2)NC(=O)[C@H](CCCCN)NC1=O [compound 995] ({Decanoyl(3R-OH)}-[dDab][Dab]K[dF]L[Dab][Dab]L; lactam 2-C); 32
CCCCCCC[C@@H](O)CC(=O)N[C@H](CCN)C(=O)N[C@H]1CCNC(=O)[C@H](CC(C)C)NC(=O)[C@H](CCN)NC(=O)[C@H](CCNC(=O)[C@@H](N)CCCNC(=N)N)NC(=O)[C@H](CC(C)C)NC(=O)[C@@H](Cc2ccccc2)NC(=O)[C@H](CCN)NC1=O [compound 6654] ({Decanoyl(3R-OH)}-[dDab][Dab][Dab][dF]L[Dab](Arg)[Dab]L; lactam 2-C); 16
CCCCCCC[C@@H](O)CC(=O)N[C@H](CCN)C(=O)N[C@H]1CCNC(=O)[C@H](CC(C)C)NC(=O)[C@H](CCN)NC(=O)[C@H](CCCCN)NC(=O)[C@H](CC(C)C)NC(=O)[C@@H](Cc2ccccc2)NC(=O)[C@H](CCN)NC1=O [compound 992] ({Decanoyl(3R-OH)}-[dDab][Dab][Dab][dF]LK[Dab]L; lactam 2-C); 16

---

Listing of entries alongside the reported CC50 at 24 h.
# procedure_details: in vitro
# assay_context: human
Positions of bridges follow the written chain, without caps; N, C: chain ends. Non-standard residues stand in square brackets, D forms with d. Residues, ends and D or L forms follow the SMILES beside them. *: point of attachment. Benzoyl(4-Ph) = O=C(c1ccc(-c2ccccc2)cc1)*; Decanoyl(3R-OH) = CCCCCCC[C@@H](O)CC(=O)*; dBip = N[C@H](Cc1ccc(-c2ccccc2)cc1)C(=O)O; Phe(4-NH2) = Nc1ccc(C[C@H](N)C(=O)O)cc1; Igl = N[C@H](C(=O)O)C1Cc2ccccc2C1; d3Pal = N[C@H](Cc1cccnc1)C(=O)O; Tle = CC(C)(C)[C@H](N)C(=O)O; Decanoyl = CCCCCCCCCC(=O)*; dOrn = NCCC[C@@H](N)C(=O)O; dDab = NCC[C@@H](N)C(=O)O; Octanoyl = CCCCCCCC(=O)*; dDap = NC[C@@H](N)C(=O)O; Dab = NCC[C@H](N)C(=O)O
reported_metric: CC50 at 24 h

CCCCCCC[C@@H](O)CC(=O)N[C@H](CN)C(=O)N[C@H]1CCNC(=O)[C@H](Cc2c[nH]c3ccccc23)NC(=O)[C@H](CCCNC(=N)N)NC(=O)[C@H](CCCCN)NC(=O)[C@H](C(C)(C)C)NC(=O)[C@@H](Cc2ccc(-c3ccccc3)cc2)NC(=O)[C@H](CCN)NC1=O [compound 8892] ({Decanoyl(3R-OH)}-[dDap][Dab][Dab][dBip][Tle]KRW; lactam 2-C); > 300 µM
CCCCCCC[C@@H](O)CC(=O)N[C@H](CN)C(=O)N[C@H]1CCNC(=O)[C@H](CC(C)C)NC(=O)[C@H](CCN)NC(=O)[C@H](CO)NC(=O)[C@H](CC(C)C)NC(=O)[C@@H](Cc2ccccc2)NC(=O)[C@H](CCN)NC1=O [compound 9193] ({Decanoyl(3R-OH)}-[dDap][Dab][Dab][dF]LS[Dab]L; lactam 2-C); > 300 µM
CCCCCCC[C@@H](O)CC(=O)N[C@H](CCN)C(=O)N[C@H]1CCNC(=O)[C@H](CC(C)C)NC(=O)[C@H](CCN)NC(=O)[C@H](CCN)NC(=O)[C@H]([C@@H](C)O)NC(=O)[C@@H](Cc2ccccc2)NC(=O)[C@H](CCN)NC1=O [compound 9289] ({Decanoyl(3R-OH)}-[dDab][Dab][Dab][dF]T[Dab][Dab]L; lactam 2-C); > 300 µM
CCCCCCC[C@@H](O)CC(=O)N[C@H](Cc1cccnc1)C(=O)N[C@H]1CCNC(=O)[C@H](CC(C)C)NC(=O)[C@H](CCN)NC(=O)[C@H](CCN)NC(=O)[C@H](Cc2ccccc2)NC(=O)[C@@H](CC(C)C)NC(=O)[C@H](CCN)NC1=O [compound 6430] ({Decanoyl(3R-OH)}-[d3Pal][Dab][Dab][dL]F[Dab][Dab]L; lactam 2-C); > 300 µM
CC(C)C[C@@H]1NC(=O)[C@H](CCN)NC(=O)[C@H](CCN)NC(=O)[C@H](Cc2ccccc2)NC(=O)[C@@H](CC(C)C)NC(=O)[C@H](CCN)NC(=O)[C@@H](NC(=O)[C@@H](CCN)NC(=O)c2ccc(-c3ccccc3)cc2)CCNC1=O [compound 6518] ({Benzoyl(4-Ph)}-[dDab][Dab][Dab][dL]F[Dab][Dab]L; lactam 2-C); > 300 µM
CC(C)C[C@@H]1NC(=O)[C@H](CCN)NC(=O)[C@H](CCN)NC(=O)[C@H](CC(C)C)NC(=O)[C@@H](Cc2ccccc2)NC(=O)[C@H](CCN)NC(=O)[C@@H](NC(=O)[C@@H](CCN)NC(=O)c2ccc(-c3ccccc3)cc2)CCNC1=O [compound 6526] ({Benzoyl(4-Ph)}-[dDab][Dab][Dab][dF]L[Dab][Dab]L; lactam 2-C); > 300 µM
CCCCCCC[C@@H](O)CC(=O)N[C@H](CCN)C(=O)N[C@H]1CCNC(=O)[C@H](Cc2c[nH]cn2)NC(=O)[C@H](CCN)NC(=O)[C@H](CCN)NC(=O)[C@H](CC(C)C)NC(=O)[C@@H](Cc2ccccc2)NC(=O)[C@H](CCN)NC1=O [compound 8911] ({Decanoyl(3R-OH)}-[dDab][Dab][Dab][dF]L[Dab][Dab]H; lactam 2-C); > 300 µM
CCCCCCC[C@@H](O)CC(=O)N[C@H](CCCN)C(=O)N[C@H]1CCNC(=O)[C@H](CC(C)C)NC(=O)[C@H](CCN)NC(=O)[C@H](CCN)NC(=O)[C@H](Cc2ccccc2)NC(=O)[C@@H](CC(C)C)NC(=O)[C@H](CCN)NC1=O [compound 6428] ({Decanoyl(3R-OH)}-[dOrn][Dab][Dab][dL]F[Dab][Dab]L; lactam 2-C); > 300 µM
CCCCCCCC(=O)N[C@H](CCN)C(=O)N[C@H]1CCNC(=O)[C@H](Cc2c[nH]c3ccccc23)NC(=O)[C@H](CCN)NC(=O)[C@H](CCN)NC(=O)[C@H](C2Cc3ccccc3C2)NC(=O)[C@@H](Cc2ccccc2)NC(=O)[C@H](CCN)NC1=O [compound 8898] (Octanoyl-[dDab][Dab][Dab][dF][Igl][Dab][Dab]W; lactam 2-C); 90 µM
CCCCCCC[C@@H](O)CC(=O)N[C@H](CCN)C(=O)N[C@H]1CCNC(=O)[C@H](CC(C)C)NC(=O)[C@H](CCN)NC(=O)[C@H](CCN)NC(=O)[C@H](CC(C)C)NC(=O)[C@H](Cc2ccccc2)NC(=O)[C@H](CCN)NC1=O [compound 5002] ({Decanoyl(3R-OH)}-[dDab][Dab][Dab]FL[Dab][Dab]L; lactam 2-C); > 300 µM
CCCCCCC[C@@H](O)CC(=O)N[C@H](CCN)C(=O)N[C@H]1CCNC(=O)[C@H](CC(C)C)NC(=O)[C@H](CCN)NC(=O)[C@H](CCN)NC(=O)[C@H](CC(C)C)NC(=O)[C@@H](Cc2ccccc2)NC(=O)[C@H](Cc2ccc(N)cc2)NC1=O [compound 8635] ({Decanoyl(3R-OH)}-[dDab][Dab][Phe(4-NH2)][dF]L[Dab][Dab]L; lactam 2-C); > 300 µM
CCCCCCCCCC(=O)N[C@H](CN)C(=O)N[C@H]1CCNC(=O)[C@H](CC(C)C)NC(=O)[C@H](CCN)NC(=O)[C@H](CCN)NC(=O)[C@H](CC(C)C)NC(=O)[C@@H](Cc2ccccc2)NC(=O)[C@H](CCN)NC1=O [compound 9192] (Decanoyl-[dDap][Dab][Dab][dF]L[Dab][Dab]L; lactam 2-C); 224 µM
